test system: Gal(b1-4)GlcNAc(b1-3)Gal(b1-4)GlcNAc(b1-3)Gal(b1-4)GlcNAc(b1-3)Gal(b1-4)GlcNAc(b1-3)Gal(b1-4)GlcNAc(b1-2)Man(a1-3)[Gal(b1-4)GlcNAc(b1-3)Gal(b1-4)GlcNAc(b1-3)Gal(b1-4)GlcNAc(b1-3)Gal(b1-4)GlcNAc(b1-3)Gal(b1-4)GlcNAc(b1-2)Man(a1-6)]Man(b1-4)GlcNAc(b1-4)[Fuc(a1-6)]GlcNAc
protocol notes: glycan array binding signal (z-score within array); higher = stronger binding
details: glycan notation: IUPAC condensed, linker removed
About 410 targets per protein were measured; listed, in parts, are those with the strongest signals and a random draw of the rest.
observed property: glycan array binding signal (z-score)
The answer should be written as a number, with no unit following it.

Gal 3C (Homo sapiens), P17931 (protein) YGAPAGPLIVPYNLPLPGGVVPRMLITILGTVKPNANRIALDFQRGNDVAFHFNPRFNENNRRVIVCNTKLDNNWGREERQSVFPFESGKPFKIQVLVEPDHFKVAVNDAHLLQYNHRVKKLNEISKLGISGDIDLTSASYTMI    6.46

(Q) Request the reported glycan array binding signal (z-score) associated with SP15308B-bot-339-22-339 (Bacteroides ovatus) (protein) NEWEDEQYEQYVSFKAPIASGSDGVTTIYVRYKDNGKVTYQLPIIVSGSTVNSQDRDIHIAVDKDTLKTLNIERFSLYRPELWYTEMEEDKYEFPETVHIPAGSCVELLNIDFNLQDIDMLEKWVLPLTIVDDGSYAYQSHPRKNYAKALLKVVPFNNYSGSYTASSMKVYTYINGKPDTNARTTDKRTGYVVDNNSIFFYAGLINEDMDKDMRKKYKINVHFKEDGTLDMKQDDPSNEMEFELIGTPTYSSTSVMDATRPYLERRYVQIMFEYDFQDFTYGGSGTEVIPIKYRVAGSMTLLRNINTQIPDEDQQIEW
(A) 0.658
